test: P. aeruginosa biofilm formation inhibitors, primary screen, PAO1 strain, BacTiter-Glo luminescence, LB-PBS (AID 1144); conditions: 12 h, higher = more signal
Calls of active or inactive are those of the source. No rule for the calls is given here.
reported-endpoint: z-score

[[record]]
cpd_smiles = "CCOC(=O)C1=C[C@@H](c2ccccc2)N(S(=O)(=O)c2ccc(C)cc2)[C@H]1c1ccc(F)cc1"
reported_endpoint = "z-score"
val = "0.449 (inactive)"

[[record]]
cpd_smiles = "COc1cc2c(cc1OC)CN(C(=O)[C@H]1[C@@H]3C(=O)O[C@@H](c4ccccc4)[C@@H](c4ccccc4)N3[C@@H](c3ccc(O)cc3)[C@]13C(=O)Nc1ccc(C#CC4(O)CCCCCC4)cc13)CC2"
reported_endpoint = "z-score"
val = "-0.785 (inactive)"

[[record]]
cpd_smiles = "Cc1ccc(S(=O)(=O)N2[C@@H](c3ccccc3)C(C(=O)O)=CC[C@H]2c2ccccc2)cc1"
reported_endpoint = "z-score"
val = "0.0815 (inactive)"

[[record]]
cpd_smiles = "CCCC[C@@H]1C[C@H]1[C@@H](NC(=O)c1ccccc1)c1ccccc1C(F)(F)F"
reported_endpoint = "z-score"
val = "-0.0632 (inactive)"

[[record]]
cpd_smiles = "CCCNC(=O)[C@@H]1c2ccccc2C(=O)N(C2CCCCC2)[C@H]1c1ccc(CO)cc1"
reported_endpoint = "z-score"
val = "-0.255 (inactive)"

[[record]]
cpd_smiles = "COC(=O)[C@@]1(Cc2ccc(OC)cc2)[C@H]2c3cc(C(=O)N(C)C)n(CCc4ccc(OC)c(Br)c4)c3C[C@H]2CN1C(=O)c1ccccc1"
reported_endpoint = "z-score"
val = "0.28 (inactive)"

[[record]]
cpd_smiles = "COC(=O)[C@@]1(Cc2ccccc2N=[N+]=[N-])N=C(c2ccc(OCCCO)cc2)O[C@H]1c1ccccc1CN=[N+]=[N-]"
reported_endpoint = "z-score"
val = "1.18 (inactive)"


----------
Known composite z-score of a selection of compounds
assay: small-molecule binders of probe aNOTCH2, primary screen, biochemical, small-molecule microarray, 635/667 nm fluorescence (AID 1121); conditions: higher = more signal;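 also: score merges feature fluorescence read at 667 nm with its signal to noise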
reported-endpoint: composite z-score

[[record]]
cpd_smiles = "CCCC[C@H]1OB(O)C[C@H]2C1=C(COC)C[C@H]1C(=O)N(Cc3ccccc3)C(=O)[C@H]12"
val = -0.182

[[record]]
cpd_smiles = "C#CCCCON=C1C[C@@H](O)[C@@H](O)[C@@H]2[C@@H]3C(=O)N(Cc4ccc5c(c4)OCO5)C(=O)[C@@H]3CC[C@H]12"
val = -0.181

[[record]]
cpd_smiles = "[N-]=[N+]=Nc1ccccc1C[C@@]1(C(=O)N2CCOCC2)N=C(c2ccc(OCCCO)cc2)O[C@@H]1c1ccccc1N=[N+]=[N-]"
val = -0.0286


----------
assay: HepG2 cell viability effects, profiling panel, calcein-AM fluorescence, 48 h, basal (AID 1164); conditions: higher = more signal; also: test concentration not given here
Known z-score of a selection of molecules
reported-endpoint: z-score

[[record]]
molecule = "O=C1OCC=C[C@H]2OC34C=CCN(Cc5ccccc5)C(=O)[C@H]3N(CCCCCO)C(=O)[C@@H]4[C@@H]12 (some centres undefined)"
reported_endpoint = "z-score"
val = -0.566

[[record]]
molecule = "C=CCOC(=O)[C@@H]1[C@H]2C(=O)O[C@H](c3ccccc3)[C@H](c3ccccc3)N2[C@H](c2ccc(OCCOC(=O)[C@H]3C[C@H]4C(=O)N[C@@H](CCCCNC(C)=O)C(=O)N4[C@H]3c3ccc(O)cc3)cc2)[C@@]12C(=O)Nc1ccc(I)cc12"
reported_endpoint = "z-score"
val = -0.931

[[record]]
molecule = "C[C@H]1COC(=O)[C@@H]2CCCN2C(=O)[C@@H](C)COC(=O)[C@@H]2CCCN2C1=O"
reported_endpoint = "z-score"
val = -0.178

[[record]]
molecule = "C=C(CCCC)/C(=C/C[C@H](OC(=O)c1ccncc1)c1cccc(OCCO)c1)c1cc(C(=O)OC)ccc1OC"
reported_endpoint = "z-score"
val = 0.0827

[[record]]
molecule = "CC(=O)NCCCC[C@@H]1NC(=O)[C@@H]2C[C@H](C(=O)NCCCCCCN(C)C)[C@H](c3ccc(O)cc3)N2C1=O"
reported_endpoint = "z-score"
val = -1.04

[[record]]
molecule = "COCCOC(=O)N1C(=O)[C@@]2(c3cc(C#CCC(C(=O)OC)C(=O)OC)ccc31)[C@H](c1ccccc1OCCO)N1[C@H](c3ccccc3)[C@H](c3ccccc3)OC(=O)[C@H]1[C@@H]2C(=O)N1CCCCCCC1"
reported_endpoint = "z-score"
val = 0.779

[[record]]
molecule = "NC(=O)NCC#Cc1ccc2c(c1)[C@]1(C(=O)N2)[C@H](C(=O)N2CCCCCCC2)[C@H]2C(=O)O[C@H](c3ccccc3)[C@H](c3ccccc3)N2[C@@H]1c1ccccc1OCCO"
reported_endpoint = "z-score"
val = -0.0395

[[record]]
molecule = "Cc1ccc(S[C@]2(C(=O)NCCN3CCOCC3)CC(=O)N(C3Cc4ccccc4C3)[C@@H]2c2ccc(CO)cc2I)cc1"
reported_endpoint = "z-score"
val = -0.0794

[[record]]
molecule = "C=C(C(=O)CC[C@H](OC(=O)c1ccccc1-c1ccccc1C(=O)O)c1ccc(CO)o1)C(C)C"
reported_endpoint = "z-score"
val = -0.396

[[record]]
molecule = "COc1cccc([C@@H]2[C@@H](C)CC[C@H]3C(=O)N4[C@H](c5cccc(OC)c5)[C@@H](C)CC[C@H]4C(=O)N23)c1"
reported_endpoint = "z-score"
val = 0.761

[[record]]
molecule = "C=CCN1C(=O)[C@@]2(Cc3ccccc3)N=C(c3ccc(OCCCO)cc3)O[C@H]2c2ccccc21"
reported_endpoint = "z-score"
val = -1.82

[[record]]
molecule = "CC1=C([C@H](O)CCc2ccccc2)[C@H](CO)[C@@H]2C(=O)N(Cc3ccccc3)C(=O)[C@@H]2C1"
reported_endpoint = "z-score"
val = -0.352

[[record]]
molecule = "O=C1C2C=CC(C(O)Cc3ccccc3)N(Nc3ccc([N+](=O)[O-])cc3)C2C(=O)N1c1ccccc1 (centres undefined)"
reported_endpoint = "z-score"
val = 0.0181

[[record]]
molecule = "C=C(C)[C@@H]1CC=C(C(O)C2C=CC3C(=O)NC(=O)C3N2Nc2ccccn2)CC1 (some centres undefined)"
reported_endpoint = "z-score"
val = -0.914

[[record]]
molecule = "CCOC(=O)C1=CCC(c2cccc3ccccc23)N(S(=O)(=O)c2ccc(C)cc2)C1 (centres undefined)"
reported_endpoint = "z-score"
val = -0.106

[[record]]
molecule = "CCOC(=O)[C@H]1C/C=C/C[C@H](C(=O)OCC)C(=O)O[C@H]2[C@@H](OC)O[C@H](CO)[C@@H](OC(=O)Nc3ccc(Br)cc3)[C@@H]2OC1=O"
reported_endpoint = "z-score"
val = -5.12

[[record]]
molecule = "CC(C)=C1C(=O)C(c2ccccc2)=C2CN3C(=O)N(CCc4ccccc4)C(=O)[C@]3(Cc3ccccc3)[C@H]21"
reported_endpoint = "z-score"
val = 0.0577

[[record]]
molecule = "CCCCCCc1nc(C2CC2)c(C)c2c1[Si](C(C)C)(C(C)C)OC2"
reported_endpoint = "z-score"
val = -0.693

[[record]]
molecule = "CSCC[C@@H]1NC(=O)CC=C[C@@H](C)COC(=O)[C@H](CCSC)NC(=O)CC=C[C@@H](C)COC1=O"
reported_endpoint = "z-score"
val = 0.0574

